# system.name: His6-TEV-PPARγ-(234-505) (Homo sapiens, UniProt P37231)
# Construct: The His6-TEV-PPARγ-(234-505) protein for assay was expressed and purified; TEV cleavage site (N); made in house
# test.details: TR-FRET Assay to Measure Co-R Peptide Recruitment to PPARγ
# Assay type: biochemical
# recorded.conditions: Co-R peptide (SMRT-ID2) recruitment; top final concentration 20 μM; read-out: TR-FRET i-Ag; AC50
observed.property: log10(AC50) (log10 of the value in nM)
Friendly reminder: values = log10 of AC50, unit nM.

COc1cc(-c2cc(C(=O)N3CCC(C(=O)NC4CCCn5ccnc54)CC34CC4)n[nH]2)c(F)cn1 (mixture of isomers); 2.12
Cc1cc(-c2cc(C(=O)N3[C@@H]4CC[C@H]3C[C@H](C(=O)NCc3cccc(Cl)c3)C4)n[nH]2)c(F)cn1; 0.85
COc1cc(-c2cc(C(=O)N3CCC(C(=O)NC4CCCc5c4ccc(=O)n5C)CC3)n[nH]2)c(Cl)cn1 (racemic); 2.97
COc1cc(-c2cc(C(=O)N3CCC(C(=O)NC4CCC(C)CC4)CC3)n[nH]2)c(Cl)cn1 (mixture of isomers) [Example 101]; 1.47
COc1cc(-c2cc(C(=O)N3C4CCC3CC(C(=O)NC3CCC(C(F)(F)F)N(C)C3)C4)n[nH]2)c(F)cn1 (mixture of isomers); 1.14

For the next question, use this compound.
[ask] I have this compound here, COc1cc(-c2cc(C(=O)N3CCC(C(=O)NC4CC(C)CC(C)(C)C4)CC3)n[nH]2)c(Cl)cn1 (mixture of isomers) , and I need its recorded log10(AC50).
[reply] 2.43

* * *

# system.name: His6-TEV-PPARγ-(234-505) (Homo sapiens)
# Construct: The His6-TEV-PPARγ-(234-505) protein for assay was expressed and purified; TEV cleavage site (N); made in house
# Sequence (P37231 234-505): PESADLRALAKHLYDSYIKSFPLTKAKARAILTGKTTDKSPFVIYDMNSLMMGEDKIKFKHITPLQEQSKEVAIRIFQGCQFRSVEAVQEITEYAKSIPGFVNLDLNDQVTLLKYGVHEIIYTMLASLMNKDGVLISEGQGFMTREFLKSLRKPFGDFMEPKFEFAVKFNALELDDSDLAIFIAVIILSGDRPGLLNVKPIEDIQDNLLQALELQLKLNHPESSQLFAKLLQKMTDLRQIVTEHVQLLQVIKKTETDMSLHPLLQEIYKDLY
# test.details: TR-FRET Assay to Measure Co-R Peptide Recruitment to PPARγ
# Format: biochemical
# recorded.conditions: Co-R peptide (SMRT-ID2) recruitment; top final concentration 20 μM; read-out: TR-FRET i-Ag; AC50
# strict inequality: AC50 < 40 nM yields y, everything else yields n

Completed entries (count: 2):
CCOC1(C(F)(F)F)CCC(NC(=O)[C@H]2CCN(C(=O)c3cc(-c4cc(C)ncn4)[nH]n3)C3(CC3)C2)CC1 (mixture of isomers); y
COc1cc(-c2cc(C(=O)N3CCC(C(=O)NCC4CCn5cncc5C4)CC34CC4)n[nH]2)c(F)cn1 (single isomer, unassigned) [Example 342-B]; n

[ask] AC50 strictly < 40 nM for this molecule? `COc1cc(-c2cc(C(=O)N3CC[C@@H](C(=O)N[C@H]4CC[C@@](OCCN(C)C)(C(F)(F)F)CC4)CC34CC4)n[nH]2)c(F)cn1`
[reply] n

[ask] Next entry: `COc1cc(-c2cc(C(=O)N3CC[C@H](C(=O)NCc4nc(C)ncc4Cl)CC34CC4)n[nH]2)c(F)cn1`
[reply] y

[ask] Next entry: `COc1cc(-c2cc(C(=O)N3CCC(C(=O)N[C@H]4CCOc5ccc(C#N)cc54)CC3)n[nH]2)c(Cl)cn1`
[reply] n

[ask] Next entry: COc1cc(-c2cc(C(=O)N3C(C)CC(C(=O)NCc4cccc(Cl)c4)CC3C)n[nH]2)c(Cl)cn1 (mixture of isomers)
[reply] y

* * *

# system.name: His6-TEV-PPARγ-(234-505) (Homo sapiens, UniProt P37231)
# Construct: The His6-TEV-PPARγ-(234-505) protein for assay was expressed and purified; TEV cleavage site (N); made in house
# test.details: TR-FRET Assay to Measure Co-R Peptide Recruitment to PPARγ
# Type: biochemical
# recorded.conditions: Co-R peptide (SMRT-ID2) recruitment; top final concentration 20 μM; read-out: TR-FRET i-Ag; AC50
# Method: TR-FRET Assay to Measure Co—R Peptide Recruitment to PPARγ The 2× detection solution contained anti-6×His-Terbium antibody (CisBio) and FITC labeled Co—R peptide (SMRT-ID2 from New England Peptide) at final concentrations of 5 and 200 nM respectively. In these assay plates, the positive control in column 24 contained 500 nM (final) T0070907 and the negative control in column 23 contained an identical volume of DMSO. […] Experiments were performed in triplicate and analyzed in GraphPad Prism 7.
# strict inequality: AC50 < 90 nM yields Condition met, everything else yields Condition not met

COc1cc(-c2cc(C(=O)N3CC[C@@H](C(=O)NCC45CCC(O)(CC4)CC5)CC34CC4)n[nH]2)c(F)cn1 (single isomer, unassigned) [Example 313-A]; Condition not met
COc1cc(-c2cc(C(=O)N3CCC(C(=O)N[C@H]4CC[C@](C)(O)CC4)CC3)n[nH]2)c(Cl)cn1 [Example 198]; Condition not met
COc1cc(-c2cc(C(=O)N3CC[C@H](C(=O)NCC4CCNCC4(F)F)CC34CC4)n[nH]2)c(F)cn1 (single isomer, unassigned) [Example 511-B]; Condition met

[ask] AC50 strictly < 90 nM for this molecule? COc1cc(-c2cc(C(=O)N3CCC(C(=O)NC4CCCc5nc(C)ncc54)CC3)n[nH]2)c(Cl)cn1 (racemic) [Example 224]
[reply] Condition not met

[ask] Next entry: COc1cc(-c2cc(C(=O)N3CC[C@H](C(=O)Nc4cnn5ccc(C(C)O)nc45)CC34CC4)n[nH]2)c(F)cn1 (single isomer, unassigned) [Example 445-B]
[reply] Condition met

* * *

# system.name: His6-TEV-PPARγ-(234-505) (Homo sapiens, UniProt P37231)
# Construct: The His6-TEV-PPARγ-(234-505) protein for assay was expressed and purified; TEV cleavage site (N); made in house
# test.details: TR-FRET Assay to Measure Co-R Peptide Recruitment to PPARγ
# Type: biochemical
# recorded.conditions: Co-R peptide (SMRT-ID2) recruitment; top final concentration 20 μM; read-out: TR-FRET i-Ag; AC50
# strict inequality: AC50 < 60 nM yields 1, everything else yields 0

[ask] AC50 strictly < 60 nM for this compound? `COc1cc(-c2cc(C(=O)N3CCC(C(=O)NCc4cc(Cl)ccc4F)CC3)n[nH]2)c(Cl)cn1`
[reply] 0

[ask] Next entry: CCOC1(C(F)(F)F)CCC(NC(=O)[C@@H]2C[C@H]3CC[C@@H](C2)N3C(=O)c2cc(-c3cc(OC)ncc3F)[nH]n2)CC1 (single isomer, unassigned)
[reply] 1

[ask] Next entry: `COc1cc(-c2cc(C(=O)N3CCC(C(=O)NCc4c(F)ccc5[nH]cnc45)CC3)n[nH]2)c(Cl)cn1`
[reply] 1

[ask] Next entry: COc1cc(-c2cc(C(=O)N3CCC(C(=O)NC4CN(CC5(O)CC5)CC4(F)F)CC34CC4)n[nH]2)c(F)cn1 (mixture of isomers)
[reply] 0

[ask] Next entry: COc1cc(-c2cc(C(=O)N3CCC(NC(=O)C4CCC(O)(C(F)(F)F)CC4)CC34CC4)n[nH]2)c(F)cn1 (single isomer, unassigned) [Example 347-B]
[reply] 0

* * *

Reported AC50 values follow for various compounds
# system.name: His6-TEV-PPARγ-(234-505) (Homo sapiens)
# Construct: The His6-TEV-PPARγ-(234-505) protein for assay was expressed and purified; TEV cleavage site (N); made in house
# test.details: TR-FRET Assay to Measure Co-R Peptide Recruitment to PPARγ
# Format: biochemical
# recorded.conditions: Co-R peptide (SMRT-ID2) recruitment; top final concentration 20 μM; read-out: TR-FRET i-Ag; AC50
Write the number in nM without appending the unit.

COc1cc(-c2cc(C(=O)N3CCC(C(=O)NC4CCC(F)(F)C4)CC3)n[nH]2)c(Cl)cn1 (racemic); 349
COc1cc(-c2cc(C(=O)N3CCC(C(=O)NC4COC(C)C4)CC3)n[nH]2)c(Cl)cn1 (mixture of isomers); 565

For the next question, use this compound.
[ask] I have this compound here, COc1cc(-c2cc(C(=O)N3[C@@H]4CC[C@H]3C[C@H](C(=O)NC3CCC5(CC3)OCCC5(F)F)C4)n[nH]2)c(F)cn1 (mixture of isomers) , and I need its recorded AC50.
[reply] 10.4
